Ref: PubChem BioAssay AID1918958

Tested on: NCI-H196 complex spheroid viability
Assay: Anticancer human tumor NCI-H196 cell line growth inhibition [LSD1];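 further: spheroids exposed to agents for 7 days before readout; 100% = DMSO vehicle control viability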
Details: second compound 1 µM; first compound 10 µM; active compounds read low
property: viability, T/C (%)
Answers are plain numbers, in %.

Reference set, count: 8
>>> observed("COc1ccc([C@@H](O)c2cc(-c3ncnc4cc(N5CCOCC5)ccc34)c(F)cc2Cl)nn1 + NC1CC1c1ccc(-c2cccc(O)c2)cc1")
50.1
>>> observed("CC(C)c1c(-c2ccccc2)nc2c(C#N)c[nH]n2c1=O + NC1CCC(NC2CC2c2ccccc2)CC1")
90.7
>>> observed("CC1COCCN1c1cc(C2(S(C)(=N)=O)CC2)nc(-c2ccnc3[nH]ccc23)n1 (stereo not given) + NC1CC1c1ccc(-c2cccc(O)c2)cc1")
62
>>> observed("O=C(c1cc(Cc2n[nH]c(=O)c3ccccc23)ccc1F)N1CCN(C(=O)C2CC2)CC1 + NC1CC1c1ccc(-c2cccc(O)c2)cc1")
78
>>> observed("CC(C)c1c(-c2ccccc2)nc2c(C#N)c[nH]n2c1=O + NC1CC1c1ccc(-c2cccc(O)c2)cc1")
79.8
>>> observed("COc1ccc([C@@H](O)c2cc(-c3ncnc4cc(N5CCOCC5)ccc34)c(F)cc2Cl)nn1 + NC1CCC(NC2CC2c2ccccc2)CC1")
58
>>> observed("CC1(C)CCC(CN2CCN(c3ccc(C(=O)NS(=O)(=O)c4ccc(NCC5CCOCC5)c([N+](=O)[O-])c4)c(Oc4cnc5[nH]ccc5c4)c3)CC2)=C(c2ccc(Cl)cc2)C1 + NC1CC1c1ccc(-c2cccc(O)c2)cc1")
19
>>> observed("CC1COCCN1c1cc(C2(S(C)(=N)=O)CC2)nc(-c2ccnc3[nH]ccc23)n1 (stereo not given) + NC1CCC(NC2CC2c2ccccc2)CC1")
72.2

Would you mind listing viability, T/C for each of the following compounds?
1. O=C(c1cc(Cc2n[nH]c(=O)c3ccccc23)ccc1F)N1CCN(C(=O)C2CC2)CC1 + NC1CCC(NC2CC2c2ccccc2)CC1
2. CC1(C)CCC(CN2CCN(c3ccc(C(=O)NS(=O)(=O)c4ccc(NCC5CCOCC5)c([N+](=O)[O-])c4)c(Oc4cnc5[nH]ccc5c4)c3)CC2)=C(c2ccc(Cl)cc2)C1 + NC1CCC(NC2CC2c2ccccc2)CC1

[80.1, 16.5]

----------
System: NCI-H196 complex spheroid viability
Assay: Anticancer human tumor NCI-H196 cell line growth inhibition [LSD1]; active = viability on the fitted dose curve at most 10% of control; inactive = the rest;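 further: spheroids exposed to agents for 7 days before readout; 100% = DMSO vehicle control viability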
Conditions: second compound 0.316 µM; first compound 0.1 µM
Hello, when you answer, please use one of the following outcomes: active, inactive

Examples with answers:
>>> assigned_class("CC1COCCN1c1cc(C2(S(C)(=N)=O)CC2)nc(-c2ccnc3[nH]ccc23)n1 (configuration not stated) + NC1CC1c1ccc(-c2cccc(O)c2)cc1")
"inactive"
>>> assigned_class("CC(C)c1c(-c2ccccc2)nc2c(C#N)c[nH]n2c1=O + NC1CCC(NC2CC2c2ccccc2)CC1")
"inactive"
>>> assigned_class("CC(C)c1c(-c2ccccc2)nc2c(C#N)c[nH]n2c1=O + NC1CC1c1ccc(-c2cccc(O)c2)cc1")
"inactive"

Could you kindly confirm the outcome this assay logged for CC(C)CC(NC(=O)C(Cc1ccccc1)NC(=O)c1cnccn1)B(O)O (configuration not stated) + NC1CCC(NC2CC2c2ccccc2)CC1 ?
active

Could you kindly confirm the outcome this assay logged for CC[C@@]1(O)C(=O)OCc2c1cc1n(c2=O)Cc2cc3c(CN(C)C)c(O)ccc3nc2-1 + NC1CCC(NC2CC2c2ccccc2)CC1 ?
inactive

Could you kindly confirm the outcome this assay logged for CC(C)CC(NC(=O)C(Cc1ccccc1)NC(=O)c1cnccn1)B(O)O (configuration not stated) + NC1CC1c1ccc(-c2cccc(O)c2)cc1 ?
active

Could you kindly confirm the outcome this assay logged for CC(C)CC(NC(=O)CNC(=O)c1cc(Cl)ccc1Cl)B1OC(=O)CC(CC(=O)O)(C(=O)O)O1 (configuration not stated) + NC1CCC(NC2CC2c2ccccc2)CC1 ?
active
